Quick list: IC50 per entry.
# ASSAY_SYSTEM: human CTPS1 (Homo sapiens, UniProt P17812)
# Construct: purchased Proteros biostructures GmbH
# Sequence (P17812 1-591): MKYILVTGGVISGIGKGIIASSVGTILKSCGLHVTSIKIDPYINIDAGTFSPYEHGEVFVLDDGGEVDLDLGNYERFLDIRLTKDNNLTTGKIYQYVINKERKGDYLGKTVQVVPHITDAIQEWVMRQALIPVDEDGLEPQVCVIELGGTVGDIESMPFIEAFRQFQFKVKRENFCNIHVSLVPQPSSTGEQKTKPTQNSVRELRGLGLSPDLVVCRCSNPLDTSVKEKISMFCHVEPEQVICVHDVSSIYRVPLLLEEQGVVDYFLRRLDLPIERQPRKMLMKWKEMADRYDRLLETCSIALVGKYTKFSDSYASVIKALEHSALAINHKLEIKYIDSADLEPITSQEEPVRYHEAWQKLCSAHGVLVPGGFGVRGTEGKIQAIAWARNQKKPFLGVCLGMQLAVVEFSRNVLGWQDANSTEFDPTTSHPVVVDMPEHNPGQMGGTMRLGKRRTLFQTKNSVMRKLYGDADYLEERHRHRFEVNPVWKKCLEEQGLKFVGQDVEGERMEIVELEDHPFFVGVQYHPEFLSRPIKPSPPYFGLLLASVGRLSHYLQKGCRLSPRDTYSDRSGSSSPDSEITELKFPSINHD
# PROTOCOL_DESCRIPTION: Human CTPS1 enzyme inhibition (ADP-Glo Max assay)
# Assay type: biochemical
# EXPERIMENTAL_CONDITIONS: Table 18, additional potency data, 25° C., read-out: CTPS1 (Human CTPS1 Enzyme Inhibition data grouped by potency range)

Guide cases for IC50, answers given:
The molecule CCC(C(=O)Nc1ccc(-c2cncc(C(F)(F)F)c2)cc1F)c1csc(NS(=O)(=O)C2CC2)n1 (single isomer, unassigned) [T415] showed IC50 equal to 100 to 1000 nM

The molecule CCOc1cncc(-c2ccc(NC(=O)C(C)(C)c3csc(NS(=O)(=O)CC4CC4)n3)c(F)c2)n1 [T433] showed IC50 equal to < 100 nM

The molecule CCOc1cncc(-c2ccc(NC(=O)C(C)(C)c3nc(NS(=O)(=O)C4CC4)sc3OC)cc2)n1 [T377] showed IC50 equal to 100 to 1000 nM

The molecule Cc1sc(NS(=O)(=O)C2CC2)nc1C(C)(C)C(=O)Nc1ccc(-c2cncc(C#N)c2)cc1 [T374] showed IC50 equal to 1000 to 10000 nM

The molecule CCOc1cncc(-c2ccc(NC(=O)C(C)(C)c3csc(NS(=O)(=O)C4CC4)n3)nc2)c1 [T337] showed IC50 equal to < 100 nM

The molecule CC(C)(C(=O)Nc1ccc(-c2cncc(F)c2)cc1C(F)(F)F)c1csc(NS(=O)(=O)C2CC2)n1 [T345] showed IC50 equal to < 100 nM

The molecule O=C(Nc1ccc(-c2cncc(C(F)(F)F)n2)cc1)C1(c2csc(NS(=O)(=O)C3CC3)n2)CC1 [T397] showed IC50 equal to 100 to 1000 nM

Proceeding to the next molecule to report its IC50.
The molecule CCOc1cncc(-c2ccc(NC(=O)C(OC)c3csc(NS(=O)(=O)C4CC4)n3)c(C(F)(F)F)c2)n1 (centres unmarked) [T449] showed IC50 equal to < 100 nM

* * *

# ASSAY_SYSTEM: human CTPS1 (Homo sapiens, UniProt P17812)
# Construct: purchased Proteros biostructures GmbH
# PROTOCOL_DESCRIPTION: Human CTPS1 enzyme inhibition (ADP-Glo Max assay)
# Assay type: biochemical
# EXPERIMENTAL_CONDITIONS: Table 17, 25° C., read-out: CTPS1 (Human CTPS1 Enzyme Inhibition data grouped by potency range)
MEASURED_ATTRIBUTE: IC50

Guide cases for IC50, answers given:
The compound CCC(C(=O)Nc1ccc(-c2cncc(OCC(F)(F)F)n2)cc1)c1csc(NS(=O)(=O)C2CC2)n1 (single isomer, unassigned) [T222] showed IC50 equal to 100 to 1000 nM

The compound CCOc1cncc(-c2ccc(NC(=O)C(CC)c3csc(NS(=O)(=O)C4CC4)n3)nc2)n1 (stereo not shown) [T177] showed IC50 equal to < 100 nM

The compound CCC(C(=O)Nc1ccc(-c2cncc(C(F)(F)F)n2)cc1F)c1csc(NS(=O)(=O)C2CC2)n1 (stereo not shown) [T197] showed IC50 equal to < 100 nM

Proceeding to the next compound to report its IC50.
The compound CCC(C(=O)Nc1ccc(-c2cncc(C3CC3)n2)cc1)c1csc(NS(=O)(=O)C2CC2)n1 (stereo not shown) [T291] showed IC50 equal to < 100 nM

Source of measurements: patent US11655246B2
